The measured values listed here are drawn from the supplement of paper PMC9233669.

- System: biotinyl-Met-oxazolone
- Method Summary: self-aminoacylation, catalytic enhancement (BMO) (fold over background); higher = more active; k-Seq, kA / k0A0; sequences stand for … in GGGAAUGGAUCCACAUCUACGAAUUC…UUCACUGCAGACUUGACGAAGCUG
Fewer inactive variants are shown than the library holds.
Catalogue of self-aminoacylation readings, one per entry.
Recorded Metric: self-aminoacylation

{"columns": ["Sequence Content", "Meas Value"],
 "data": [
  ["AUUCACCAGGGUCAUCGGGUG [Fam2.2 aminoacylation ribozyme variant]", 7.51],
  ["ACUCACCUAGGUCCUCGGGUG [Fam2.2 aminoacylation ribozyme variant]", 5.36],
  ["CCAAUUCAAACAAUCGGUCUG [Fam1A.1 aminoacylation ribozyme variant]", 1.02],
  ["AUUACCCUGGUCCUAGAGUGA [Fam2.1 aminoacylation ribozyme variant]", 9.27],
  ["CUACUUUAAACAAUCGGUCUU [Fam1A.1 aminoacylation ribozyme variant]", 1.09],
  ["AUUCACCUAGGAUAUCGGGUG [Fam2.2 aminoacylation ribozyme variant]", 6.65],
  ["AUUCACCCUGGUCAUCGGGUG [Fam2.2 aminoacylation ribozyme variant]", 10.6],
  ["AGGUUUGCUGAUAGUCGCAAG [Fam3.1 aminoacylation ribozyme variant]", 1.53],
  ["CCAUACUUCAAGCAAUCGGUC [Fam1B.1 aminoacylation ribozyme variant]", 0.921]
]}

###

Catalogue of self-aminoacylation readings, one per entry.
- System: biotinyl-Leu-oxazolone
- Method Summary: self-aminoacylation, catalytic enhancement (BLO) (fold over background); higher = more active; k-Seq, kA / k0A0; sequences stand for … in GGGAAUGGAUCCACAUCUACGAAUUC…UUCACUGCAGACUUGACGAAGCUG
This sample holds only a part of the variants without activity.

{"columns": ["Sequence Content", "Tgt", "self-aminoacylation"],
 "data": [
  ["CCACGCUUUAAGCAAUCGGUC [Fam1B.1 aminoacylation ribozyme variant]", "biotinyl-Leu-oxazolone", 0.682],
  ["CUACUUCAAACAUUCAGUCUG [Fam1A.1 aminoacylation ribozyme variant]", "biotinyl-Leu-oxazolone", 0.741],
  ["AUUCACCUGGGCCAUCGGGUG [Fam2.2 aminoacylation ribozyme variant]", "biotinyl-Leu-oxazolone", 6.53],
  ["CCACACUUCAUUCAAUCGGUC [Fam1B.1 aminoacylation ribozyme variant]", "biotinyl-Leu-oxazolone", 0.701]
]}

###

- System: biotinyl-Leu-oxazolone
- Method Summary: self-aminoacylation, catalytic enhancement (BLO) (fold over background); higher = more active; k-Seq, kA / k0A0; sequences stand for … in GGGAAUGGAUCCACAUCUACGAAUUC…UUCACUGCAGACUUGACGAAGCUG
Fewer inactive variants are shown than the library holds.
Assign satisfied to entries whose self-aminoacylation meets or exceeds 3; assign not satisfied to the rest.

{"columns": ["Sequence Content", "Tgt", "Group Label"],
 "data": [
  ["AUUCACCUAGGUCCUCGGAUG [Fam2.2 aminoacylation ribozyme variant]", "biotinyl-Leu-oxazolone", "not satisfied"],
  ["AUAACCCUGGUCAUUGAGUGA [Fam2.1 aminoacylation ribozyme variant]", "biotinyl-Leu-oxazolone", "satisfied"],
  ["ACGAUUGCUAAUAGUCGCAAG [Fam3.1 aminoacylation ribozyme variant]", "biotinyl-Leu-oxazolone", "not satisfied"],
  ["CUGCUUCAAACAAUCGGUUUG [Fam1A.1 aminoacylation ribozyme variant]", "biotinyl-Leu-oxazolone", "satisfied"],
  ["CUACUUCCAACAAUCGGUCAG [Fam1A.1 aminoacylation ribozyme variant]", "biotinyl-Leu-oxazolone", "not satisfied"],
  ["AUUCACCUGUGUCAUCGGGUG [Fam2.2 aminoacylation ribozyme variant]", "biotinyl-Leu-oxazolone", "satisfied"],
  ["CCACACUUCAAGCCAUCUGUC [Fam1B.1 aminoacylation ribozyme variant]", "biotinyl-Leu-oxazolone", "not satisfied"],
  ["AUUACCAUGGUCAUCGCGUGA [Fam2.1 aminoacylation ribozyme variant]", "biotinyl-Leu-oxazolone", "satisfied"],
  ["CCACACUUCAAGCAGUAGGUC [Fam1B.1 aminoacylation ribozyme variant]", "biotinyl-Leu-oxazolone", "not satisfied"],
  ["CCACAGUUCAAUCAAUCGGUC [Fam1B.1 aminoacylation ribozyme variant]", "biotinyl-Leu-oxazolone", "not satisfied"],
  ["AUUACGCUGGUCAUCGACUGA [Fam2.1 aminoacylation ribozyme variant]", "biotinyl-Leu-oxazolone", "not satisfied"],
  ["AUUAACCUGGUCAUCGUGUGA [Fam2.1 aminoacylation ribozyme variant]", "biotinyl-Leu-oxazolone", "satisfied"],
  ["AUGCAGCUAGGUCAUCGGGUG [Fam2.2 aminoacylation ribozyme variant]", "biotinyl-Leu-oxazolone", "satisfied"],
  ["CUACUUCAAACAAUAGGACUG [Fam1A.1 aminoacylation ribozyme variant]", "biotinyl-Leu-oxazolone", "not satisfied"],
  ["AUUGACCUAGGUAAUCGGGUG [Fam2.2 aminoacylation ribozyme variant]", "biotinyl-Leu-oxazolone", "satisfied"],
  ["AAGUUUGCUGAUAGUCGUAAG [Fam3.1 aminoacylation ribozyme variant]", "biotinyl-Leu-oxazolone", "not satisfied"],
  ["CUACGUCAUACAAUCGGUCUG [Fam1A.1 aminoacylation ribozyme variant]", "biotinyl-Leu-oxazolone", "not satisfied"]
]}

###

- Test system: biotinyl-Ile-oxazolone
- Method Summary: self-aminoacylation, catalytic enhancement (BIO) (fold over background); higher = more active; k-Seq, kA / k0A0; sequences stand for … in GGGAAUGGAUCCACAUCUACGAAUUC…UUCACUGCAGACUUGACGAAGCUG
This sample holds only a part of the variants without activity.

{"columns": ["Sequence Content", "self-aminoacylation"],
 "data": [
  ["AAGUUUGCUAUUAGGCGCAAG [Fam3.1 aminoacylation ribozyme variant]", 0.746],
  ["AUUCAGCUAGGUCAACGGGUG [Fam2.2 aminoacylation ribozyme variant]", 1.81],
  ["AUUACCCUUGUCAUCGAGUCA [Fam2.1 aminoacylation ribozyme variant]", 0.895],
  ["CUGCUUCAAACAAUCGGUCUU [Fam1A.1 aminoacylation ribozyme variant]", 1.84],
  ["AUACUUCCAACAAUCGGUCUG [Fam1A.1 aminoacylation ribozyme variant]", 0.782],
  ["CCAAUUCAAACAAUCGGUCUG [Fam1A.1 aminoacylation ribozyme variant]", 1.11],
  ["CCACACUUCAAGCAAUCCGGC [Fam1B.1 aminoacylation ribozyme variant]", 3.02],
  ["CCAAACUUCAAUCAAUCGGUC [Fam1B.1 aminoacylation ribozyme variant]", 1.29],
  ["AUGCAGCUAGGUCAUCGGGUG [Fam2.2 aminoacylation ribozyme variant]", 2.95],
  ["AUGCUUGCUAAUAGUCGCAAG [Fam3.1 aminoacylation ribozyme variant]", 1.81],
  ["AUUCACCUAGGACUUCGGGUG [Fam2.2 aminoacylation ribozyme variant]", 2.5],
  ["ACCCACCUAGGUCAUCGGGUG [Fam2.2 aminoacylation ribozyme variant]", 5.07],
  ["AAGUUUGCAAAUAGUCGCAAA [Fam3.1 aminoacylation ribozyme variant]", 1.67],
  ["AUUUCCCUGGUCAUCGCGUGA [Fam2.1 aminoacylation ribozyme variant]", 9.18],
  ["ACUCACCUAGGUCAUCCGGUG [Fam2.2 aminoacylation ribozyme variant]", 4.6],
  ["CCACACUUCAAGCAAGCGGGC [Fam1B.1 aminoacylation ribozyme variant]", 1.61],
  ["AUUCCCCUGGUGAUCGAGUGA [Fam2.1 aminoacylation ribozyme variant]", 3.12],
  ["AUUCACCUGUGUCAUCGGGUG [Fam2.2 aminoacylation ribozyme variant]", 5.71],
  ["CUACUUCAAACCAUCGGUCAG [Fam1A.1 aminoacylation ribozyme variant]", 0.67],
  ["CUACUUCAAACAAUCGCUAUG [Fam1A.1 aminoacylation ribozyme variant]", 0.99],
  ["AUUACCCUGGGAAUCGAGUGA [Fam2.1 aminoacylation ribozyme variant]", 2.78],
  ["AAGUUUGGCAAUAGUCGCAAG [Fam3.1 aminoacylation ribozyme variant]", 1.79],
  ["AAGUUUGCUAUUACUCGCAAG [Fam3.1 aminoacylation ribozyme variant]", 0.728],
  ["CUACUUCAAACAAGUGGUCUG [Fam1A.1 aminoacylation ribozyme variant]", 0.968],
  ["GAGUUUGCUAAUAGUCGCAAA [Fam3.1 aminoacylation ribozyme variant]", 2.47],
  ["AUUACCUUGGUCAUCGAGAGA [Fam2.1 aminoacylation ribozyme variant]", 0.924],
  ["AAGUUUUCUAAUAGUCGCAAA [Fam3.1 aminoacylation ribozyme variant]", 1.93],
  ["AUUACCCUCGUCAUCGAGUGU [Fam2.1 aminoacylation ribozyme variant]", 1.34],
  ["CUACUUGAUACAAUCGGUCUG [Fam1A.1 aminoacylation ribozyme variant]", 0.753],
  ["CUACUUUAAACAAUCGGUCUU [Fam1A.1 aminoacylation ribozyme variant]", 0.888],
  ["AAGUUUGCUAAUAGUCGGAAU [Fam3.1 aminoacylation ribozyme variant]", 1.37],
  ["AUUACGCUGGUUAUCGAGUGA [Fam2.1 aminoacylation ribozyme variant]", 3.22],
  ["AGGUUUGCUAAUAGUCGUAAG [Fam3.1 aminoacylation ribozyme variant]", 1.22],
  ["UUUACCCUGGUUAUCGAGUGA [Fam2.1 aminoacylation ribozyme variant]", 4.28],
  ["CUACUUCAAACAAUCCGUCGG [Fam1A.1 aminoacylation ribozyme variant]", 0.947]
]}
